system-under-test: consensus OR4C15 (Homo sapiens, UniProt Q8NGM1, A218G/A270V/E23K/G63A/I200A/I247V/I275T/L152F/L222F/L266F/M197L/N174D/N209I/N278T/Q295N/R137W/R299K/T258A/T88R/V55G/V87E/W233R)
Construct: Flag (N); Rho tag (N); expressed in transfected cells; host or cells: HEK293
Sequence (Q8NGM1 1-311 with the stated changes limits assumed): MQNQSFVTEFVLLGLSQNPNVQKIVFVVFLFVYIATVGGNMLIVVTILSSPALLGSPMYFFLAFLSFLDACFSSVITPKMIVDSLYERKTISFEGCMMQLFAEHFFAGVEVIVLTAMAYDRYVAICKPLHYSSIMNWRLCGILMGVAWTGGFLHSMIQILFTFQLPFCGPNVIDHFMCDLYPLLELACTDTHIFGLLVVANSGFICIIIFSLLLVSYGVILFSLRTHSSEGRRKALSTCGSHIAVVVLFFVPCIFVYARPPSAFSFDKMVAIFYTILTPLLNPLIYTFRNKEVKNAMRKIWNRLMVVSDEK
measurement-protocol: Luciferase assay, sulfur compounds
Assay type: cell-based
pEC50: −log10 of the molar value.

>  <compound>
CSSC [dimethyl disulfide]

>  <pEC50>
3.21

$$$$

----------
system-under-test: OR4S2 (original olfactory receptor) (Homo sapiens, UniProt Q8NH73)
Construct: expressed in transfected cells; host or cells: HEK293
Sequence (Q8NH73 1-311): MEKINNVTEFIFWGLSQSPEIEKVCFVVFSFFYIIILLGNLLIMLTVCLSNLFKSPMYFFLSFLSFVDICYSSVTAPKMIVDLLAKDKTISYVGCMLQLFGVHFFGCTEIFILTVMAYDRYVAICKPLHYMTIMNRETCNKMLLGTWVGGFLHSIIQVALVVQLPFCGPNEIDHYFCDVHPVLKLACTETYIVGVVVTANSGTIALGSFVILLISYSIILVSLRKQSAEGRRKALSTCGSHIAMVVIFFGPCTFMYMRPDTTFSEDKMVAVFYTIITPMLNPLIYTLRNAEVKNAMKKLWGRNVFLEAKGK
measurement-protocol: Luciferase assay, sulfur compounds
Assay type: cell-based
condition-info: OR4S2 (original); 30 μM CuCl2; read-out: EC50(μM) with 30 μM CuCl2

>  <molecule>
CSSSC [dimethyl trisulfide]

>  <EC50 [µM]>
28

$$$$
>  <molecule>
CSC [dimethyl sulfide]

>  <EC50 [µM]>
22

$$$$

----------
system-under-test: consensus OR11H2 (Homo sapiens, UniProt Q8NH07, A157T/A61V/C266F/D203A/E289A/F213L/F41L/F62C/G242R/I210T/I230L/I288V/I49T/K181M/K238L/L128F/L146H/L162I/M76I/N106T/N25R/P269S/Q137R/Q308R/Q30L/R68Q/S246A/S268G/T131A/T283A/T37K/V63A/Y156C)
Construct: expressed in transfected cells; host or cells: HEK293
Sequence (Q8NH07 12-326 N25R/Q30L/T37K/F41L/I49T/A61V/F62C/V63A/R68Q/M76I/N106T/L128F/T131A/Q137R/L146H/Y156C/A157T/L162I/K181M/D203A/I210T/F213L/I230L/K238L/G242R/S246A/C266F/S268G/P269S/T283A/I288V/E289A/Q308R): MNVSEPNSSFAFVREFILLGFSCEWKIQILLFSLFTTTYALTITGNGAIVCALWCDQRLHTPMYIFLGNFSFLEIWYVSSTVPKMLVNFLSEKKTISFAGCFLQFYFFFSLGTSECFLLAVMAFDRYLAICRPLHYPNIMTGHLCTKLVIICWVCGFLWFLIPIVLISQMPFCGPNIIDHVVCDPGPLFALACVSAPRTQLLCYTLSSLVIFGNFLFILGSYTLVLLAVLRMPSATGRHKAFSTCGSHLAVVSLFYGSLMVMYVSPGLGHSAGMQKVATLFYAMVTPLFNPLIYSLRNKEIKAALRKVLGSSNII
measurement-protocol: Luciferase assay, sulfur compounds
Format: cell-based
condition-info: in the presence of a copper ion
recorded-metric: response of consensus OR11H2

>  <compound>
CSSC [dimethyl disulfide]

>  <recorded-metric>
response of consensus OR11H2

>  <measured>
responded

$$$$
>  <compound>
CS

>  <recorded-metric>
response of consensus OR11H2

>  <measured>
responded

$$$$
>  <compound>
CSSSC [dimethyl trisulfide]

>  <recorded-metric>
response of consensus OR11H2

>  <measured>
responded

$$$$
>  <compound>
CSC [dimethyl sulfide]

>  <recorded-metric>
response of consensus OR11H2

>  <measured>
responded

$$$$

----------
system-under-test: consensus OR2T1 (Homo sapiens, UniProt O43869, C277R/D138G/I77L/L118F/L265I/L324F/N134D/Q276H/S299T)
Sequence (O43869 52-369 I77L/L118F/N134D/D138G/L265I/Q276H/C277R/S299T/L324F): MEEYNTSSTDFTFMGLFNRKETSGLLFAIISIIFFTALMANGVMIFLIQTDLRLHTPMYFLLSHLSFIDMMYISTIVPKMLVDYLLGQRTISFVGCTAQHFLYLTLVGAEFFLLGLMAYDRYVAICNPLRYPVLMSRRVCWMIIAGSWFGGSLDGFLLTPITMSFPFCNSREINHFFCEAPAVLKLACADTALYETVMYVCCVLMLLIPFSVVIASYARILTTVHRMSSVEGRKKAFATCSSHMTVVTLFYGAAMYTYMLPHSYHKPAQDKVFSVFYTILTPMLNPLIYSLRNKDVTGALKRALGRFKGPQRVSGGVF
measurement-protocol: Luciferase assay, sulfur compounds

>  <smiles-text>
CS

>  <result-units>
µM

>  <EC50>
33

$$$$

----------
system-under-test: consensus OR11H2 (Homo sapiens, UniProt Q8NH07, A157T/A61V/C266F/D203A/E289A/F213L/F41L/F62C/G242R/I210T/I230L/I288V/I49T/K181M/K238L/L128F/L146H/L162I/M76I/N106T/N25R/P269S/Q137R/Q308R/Q30L/R68Q/S246A/S268G/T131A/T283A/T37K/V63A/Y156C)
Construct: expressed in transfected cells; host or cells: HEK293
Sequence (Q8NH07 12-326 N25R/Q30L/T37K/F41L/I49T/A61V/F62C/V63A/R68Q/M76I/N106T/L128F/T131A/Q137R/L146H/Y156C/A157T/L162I/K181M/D203A/I210T/F213L/I230L/K238L/G242R/S246A/C266F/S268G/P269S/T283A/I288V/E289A/Q308R): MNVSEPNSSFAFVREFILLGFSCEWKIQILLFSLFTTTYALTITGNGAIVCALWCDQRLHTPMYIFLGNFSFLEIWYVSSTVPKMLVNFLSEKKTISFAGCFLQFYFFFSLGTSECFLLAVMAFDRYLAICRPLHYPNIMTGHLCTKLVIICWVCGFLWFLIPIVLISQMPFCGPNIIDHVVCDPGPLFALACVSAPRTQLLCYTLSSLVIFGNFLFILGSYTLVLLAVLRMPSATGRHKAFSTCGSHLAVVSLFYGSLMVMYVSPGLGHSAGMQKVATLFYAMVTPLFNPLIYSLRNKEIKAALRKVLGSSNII
measurement-protocol: Luciferase assay, sulfur compounds
Assay type: cell-based
condition-info: consensus OR11H2; 30 μM CuCl2

>  <compound>
CSC [dimethyl sulfide]

>  <EC50 (µM)>
22

$$$$

----------
system-under-test: consensus OR6B3 (Homo sapiens, UniProt Q8NGW1, A219G/C161Y/C234R/F239S/F305L/G10S/I281L/L135I/L142V/M157V/M215V/P138T/Q89R/R8K/S64G/T78I/V136M/V15L/V166A/V250I)
Sequence (Q8NGW1 with tags, fused parts or gaps R8K/G10S/V15L/S64G/T78I/Q89R/L135I/V136M/P138T/L142V/M157V/C161Y/V166A/M215V/A219G/C234R/F239S/V250I/I281L/F305L): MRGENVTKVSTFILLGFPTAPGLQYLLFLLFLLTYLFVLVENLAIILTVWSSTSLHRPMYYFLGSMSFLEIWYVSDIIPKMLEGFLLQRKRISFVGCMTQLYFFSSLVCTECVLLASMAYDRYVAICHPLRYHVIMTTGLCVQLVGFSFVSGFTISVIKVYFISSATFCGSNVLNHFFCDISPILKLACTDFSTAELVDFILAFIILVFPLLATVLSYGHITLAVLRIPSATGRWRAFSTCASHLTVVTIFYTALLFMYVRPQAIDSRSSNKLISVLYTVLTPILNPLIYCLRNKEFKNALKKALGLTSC
measurement-protocol: Luciferase assay, sulfur compounds
pEC50: −log10 of the molar value.

>  <compound>
CSSC [dimethyl disulfide]

>  <pEC50>
2.80

$$$$

----------
system-under-test: consensus OR4E2 (Homo sapiens, UniProt Q8NGC2, A48T/F285L/G158V/H228Q/I116T/I142V/I197M/I47V/L183P/M219T/M25I/M36V/Q234R/R21W/S209T/S40L/S54R/T201S/T49I/T99A/V118M/V214L)
Construct: Flag (N); Rho tag (N); expressed in transfected cells; host or cells: HEK293
Sequence (Q8NGC2 1-312 with the stated changes limits assumed): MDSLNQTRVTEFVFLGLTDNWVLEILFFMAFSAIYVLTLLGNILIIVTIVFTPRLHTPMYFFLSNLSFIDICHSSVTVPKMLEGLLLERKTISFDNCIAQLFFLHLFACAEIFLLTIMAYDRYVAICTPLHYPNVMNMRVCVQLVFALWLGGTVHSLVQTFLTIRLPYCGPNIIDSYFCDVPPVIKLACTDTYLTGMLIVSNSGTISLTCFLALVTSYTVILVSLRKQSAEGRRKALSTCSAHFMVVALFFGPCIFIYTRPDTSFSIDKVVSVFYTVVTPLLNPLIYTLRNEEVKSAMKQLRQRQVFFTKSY
measurement-protocol: Luciferase assay, sulfur compounds
Type: cell-based
pEC50: −log10 of the molar value.

>  <compound>
CSSC [dimethyl disulfide]

>  <pEC50>
3.40

$$$$
>  <compound>
CS

>  <pEC50>
3.60

$$$$

The reported measurements were obtained from patent US20240279302A1.
